# Measurement target: human purified αVβ5 (Homo sapiens, UniProt P06756+P18084)
# Construct: purchased Chemicon International, Inc
# Sequence (P06756 31-889 limits assumed): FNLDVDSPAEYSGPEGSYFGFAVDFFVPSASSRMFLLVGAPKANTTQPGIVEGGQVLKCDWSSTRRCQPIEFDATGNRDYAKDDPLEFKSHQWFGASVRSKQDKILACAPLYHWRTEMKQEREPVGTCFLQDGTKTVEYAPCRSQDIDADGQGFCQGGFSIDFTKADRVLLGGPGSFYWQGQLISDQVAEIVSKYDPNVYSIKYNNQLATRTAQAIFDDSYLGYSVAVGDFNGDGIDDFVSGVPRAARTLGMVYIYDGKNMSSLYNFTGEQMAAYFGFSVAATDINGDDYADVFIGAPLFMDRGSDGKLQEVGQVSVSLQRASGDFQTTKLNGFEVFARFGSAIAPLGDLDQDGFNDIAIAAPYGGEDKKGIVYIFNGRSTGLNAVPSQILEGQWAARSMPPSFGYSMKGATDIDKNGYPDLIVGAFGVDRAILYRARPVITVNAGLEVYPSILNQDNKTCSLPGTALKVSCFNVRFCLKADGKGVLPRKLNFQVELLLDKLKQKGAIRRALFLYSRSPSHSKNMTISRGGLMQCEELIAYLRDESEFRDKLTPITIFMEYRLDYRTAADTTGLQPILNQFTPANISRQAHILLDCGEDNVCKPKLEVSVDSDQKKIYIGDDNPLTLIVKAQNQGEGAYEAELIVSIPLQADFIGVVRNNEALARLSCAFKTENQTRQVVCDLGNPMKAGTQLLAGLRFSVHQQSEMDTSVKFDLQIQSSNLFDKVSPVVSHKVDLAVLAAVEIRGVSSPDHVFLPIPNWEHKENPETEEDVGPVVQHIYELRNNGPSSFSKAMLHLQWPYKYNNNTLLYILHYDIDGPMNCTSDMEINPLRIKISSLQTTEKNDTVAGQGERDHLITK
# Sequence (P06756 891-1048 partner limits assumed): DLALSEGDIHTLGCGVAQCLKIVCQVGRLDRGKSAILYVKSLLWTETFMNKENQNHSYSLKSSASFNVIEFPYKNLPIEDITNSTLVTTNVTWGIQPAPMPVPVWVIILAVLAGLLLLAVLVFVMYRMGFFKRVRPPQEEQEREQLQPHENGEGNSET
# Sequence (P18084 24-799): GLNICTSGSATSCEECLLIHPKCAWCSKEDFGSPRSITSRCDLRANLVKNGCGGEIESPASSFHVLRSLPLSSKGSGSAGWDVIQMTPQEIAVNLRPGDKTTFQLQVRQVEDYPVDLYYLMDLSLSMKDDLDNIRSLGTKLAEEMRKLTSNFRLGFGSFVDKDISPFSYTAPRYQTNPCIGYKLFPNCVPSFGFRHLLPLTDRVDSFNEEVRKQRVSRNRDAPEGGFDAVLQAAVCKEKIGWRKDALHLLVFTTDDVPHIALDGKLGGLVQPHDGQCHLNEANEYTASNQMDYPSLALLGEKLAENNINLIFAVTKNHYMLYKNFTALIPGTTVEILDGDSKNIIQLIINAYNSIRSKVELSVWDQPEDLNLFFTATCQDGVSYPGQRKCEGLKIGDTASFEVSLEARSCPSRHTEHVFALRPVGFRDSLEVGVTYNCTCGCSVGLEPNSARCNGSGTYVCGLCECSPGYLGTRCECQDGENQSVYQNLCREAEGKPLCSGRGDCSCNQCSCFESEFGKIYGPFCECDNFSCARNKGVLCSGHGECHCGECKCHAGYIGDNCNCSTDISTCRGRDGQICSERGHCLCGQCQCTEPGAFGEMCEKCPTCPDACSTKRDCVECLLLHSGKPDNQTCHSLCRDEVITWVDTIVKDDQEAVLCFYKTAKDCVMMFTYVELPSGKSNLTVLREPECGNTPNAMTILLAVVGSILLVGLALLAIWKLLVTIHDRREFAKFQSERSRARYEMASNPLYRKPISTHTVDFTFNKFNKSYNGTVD
# Test name: In Vitro Solid Phase Purified αcβ5 Binding Assay (vitronectin/αVβ5)
# Details: vitronectin binding to immobilized purified human αVβ5; mean ± spread; read-out: αvβ5 IC50
Parameter measured: pIC50
The read-out pIC50 is expressed as -log10 of concentration in moles per litre.

>  <Compound>
O=C(O)CC(c1cnc2c(c1)CCCC2)C1CCN(C(=O)CCCc2ccc3c(n2)NCCC3)CC1 (single isomer, unassigned) [Cpd 58b]

>  <Measurement target>
human purified αVβ5 (Homo sapiens, UniProt P06756+P18084)

>  <Parameter measured>
pIC50

>  <Endpoint result>
6.24

$$$$
>  <Compound>
O=C(O)CC(c1cnc2ccccc2c1)C1CCN(C(=O)Cc2cccc(NC3=NCC(O)CN3)c2)CC1 (centres unmarked) [Cpd 3]

>  <Measurement target>
human purified αVβ5 (Homo sapiens, UniProt P06756+P18084)

>  <Parameter measured>
pIC50

>  <Endpoint result>
5.60

$$$$
>  <Compound>
COc1cc(C(CC(=O)O)CC2CCN(C(=O)CCc3ccc4c(n3)NCCC4)CC2)ccc1O (racemic) [Cpd 76]

>  <Measurement target>
human purified αVβ5 (Homo sapiens, UniProt P06756+P18084)

>  <Parameter measured>
pIC50

>  <Endpoint result>
7.40

$$$$
>  <Compound>
O=C(O)CC(c1ccc2c(c1)OCO2)C1CCN(C(=O)Cc2ccc3c(n2)NCCC3)CC1 (centres unmarked) [Cpd 16]

>  <Measurement target>
human purified αVβ5 (Homo sapiens, UniProt P06756+P18084)

>  <Parameter measured>
pIC50

>  <Endpoint result>
6.11

$$$$
>  <Compound>
O=C(O)CC(CC1CCN(C(=O)CCc2ccc3c(n2)NCCC3)CC1)c1cccc(F)c1 (centres unmarked) [Cpd 30]

>  <Measurement target>
human purified αVβ5 (Homo sapiens, UniProt P06756+P18084)

>  <Parameter measured>
pIC50

>  <Endpoint result>
8.55

$$$$

Query :: Need pIC50, item COc1cccc(C(CC(=O)O)CC2CCN(C(=O)CCc3ccc4c(n3)NCCC4)CC2)c1 (racemic) [Cpd 59]
Result :: 8.02

Query :: // query pIC50 value for entry COc1ccc(C(CC(=O)O)CC2CCN(C(=O)CCc3ccc4c(n3)NCCC4)CC2)cn1 (single isomer, unassigned) [Cpd 28a]
Result :: 8.38

Query :: Entry COc1ccc(C(CC(=O)O)CC2CCN(C(=O)CCc3ccc4c(n3)NCCC4)CC2)cc1F (centres unmarked) [Cpd 42] : reported pIC50 = ?
Result :: 7.72
